Assay method text: Cmax in body fluid of Wistar rat infected with methicillin-resistant Staphylococcus aureus MRG3 at 50 mg/kg, sc measured on day 4 postdose
Format: ADME, organism-based
Set-up: dose 50 mg/kg, route subcutaneous
Experimental endpoint: Cmax (ng/mL)
Answers are plain numbers, in ng/mL.

Annotate the molecule CN[C@H](CC(C)C)C(=O)N[C@H]1C(=O)N[C@@H](CC(N)=O)C(=O)N[C@H]2C(=O)N[C@H]3C(=O)N[C@H](C(=O)N[C@H](C(=O)O)c4cc(O)cc(O)c4-c4cc3ccc4O)[C@H](O)c3ccc(c(Cl)c3)Oc3cc2cc(c3O[C@@H]2O[C@H](CO)[C@@H](O)[C@H](O)[C@H]2O[C@H]2C[C@](C)(N)[C@H](O)[C@H](C)O2)Oc2ccc(cc2Cl)[C@H]1O [VANCOMYCIN] with its measured Cmax.
12000
